Known glycan array binding signal (z-score) of a selection of binders
target: Neu5Ac(a2-3)Gal(b1-4)GlcNAc(b1-2)[Neu5Ac(a2-3)Gal(b1-4)GlcNAc(b1-6)]Man(a1-6)[Neu5Ac(a2-3)Gal(b1-4)GlcNAc(b1-2)Man(a1-3)][GlcNAc(b1-4)]Man(b1-4)GlcNAc(b1-4)GlcNAc; assay: glycan array binding signal (z-score within array); higher = stronger binding; settings: glycan notation: IUPAC condensed, linker removed
The entries come from a sample that favours the strongest signals as a whole.

Sample answers from the record:
Pwp7 (Candida glabrata) (protein) MGSSHHHHHHSSGLVPRGSHMASKNPVDFPNLCQYPNLDGAVAGFDTEIYNADPSILINFSLWPILQFPKEWHKTIGRAITTQTNFKLPASDTTLFGVSIPTQNILIEFRGYFIPPKSGTYTFALYLTDDGSAMFLGNDAAFPCGNITSWSNPTNDQVSVSDYDPKKKTLTVYMVAGVAYPLRIAYYNREKGGSLTASFVDPDGLTHSDWNGYIWTLPSCDNCKYS	10.8
Loc1 (Escherichia coli) (protein) APCALTNVGEQRGTYILKPLSMKGNLTAEKIENTGNIIECTDLQETTNAIKVHFLTQNALKFKVGSRHYIINFPFEYDGKKIELPGKSSYNLEEMLSAINFTIPYSIASVSDSSNTADIFPGTPFPLLFEIEVSSCTGNNTNCNSVRFNYNLNTILQVNLMTHHHHHH	-0.322
FimA-N1 (Actinomyces oris) (protein) MHHHHHHSSGVDLGTENLYFQSNATETPNYGNIKTDATGSLVIHKHLTGGGKDIGTPTGTAQNADDKGPAVEGVVFTAYPITDINLKDPAGWDTISNLSRTGVPDSACANPAAPTLGAHQFGTPKVSPATTKEGLATITEMPVQAYLVCETTTPGDIVQKAKPFVVTIPHPNTAAGADGQWIYDVNVYPKNEAIDVDKTIQAQK	-0.572
Pwp4 (Candida glabrata) (protein) MGSSHHHHHHSSGLVPRGSHMASVGNPITVSNVCSFPKNWHRTAGFRALTARLGIGIQSDSYKELLNYPGTFQLTTQQSSTTKPNFQISGLVGNIYGLTIVPSYLLVELTGYFVPPVSGEYTFSLEGSDDAAIIFIANPSTFKCGHVEDWPTAYDNDVTVTESIHATRTIYMIEGVAYPIRIAYYNGLSLGKLQASFTDPEGVKRVDWNGYIWRYDSCDTCSYV	9.42
FimA-N2 (Actinomyces oris) (protein) MHHHHHHSSGVDLGTENLYFQSNAWIYDVNVYPKNEAIDVDKTIQAQKLNGYGVGSLIKFPVESTAPTLDAKSFYKYFQLKDTLDERLSEVTATDVSLEGTPLQPTDYKVETKQQTVTVTFTAEGLKKIKAAPGKKVSAVFQGKVTKAGNGAITNRAQVISDTLYAEQPPTPETPPTDPENPPTSDEVISRWGDLSIKKVDTHQQGQTKA	-0.874
Pwp6 (Candida glabrata) (protein) MGSSHHHHHHSSGLVPRGSHMASANLPKLTNICQIPDNVKKTSGFKGEIRRIGLFPPGGDYTYLLKFPSTGSTASDTISLTTKPQLSTSGWFPSLFGHTYFIKADLLVYMVAYFVPTETGEYTFKLVNSDDAAVMYVGNPSAFPCGSIDTWPEPRKEDINVCDKISASTKLYMEKGLAYPVRLVWYNGGGDGQFNAQFIDPSGTTHTDWNGYVWQYDACTDCDYK	1.89

# glycan array binding signal (z-score) lookup, item Mnn9-2N3 (Aspergillus fumigatus) (protein) MAVARRMRRTNPITLLLAAILAIGFFIFVLSPSTTSASPVKAGSASSSSTSQQRREDNAAENPLSPPTKPFFKSQPVRHDGQQAPPPVVQYNLNQLSSTSTSAANGERILILTPMARFVPEYWDNVVKLTYPHELISIGFIIPKNKEGNAALAALEAAIAKTQSGPIDKRFASISILRQDFEPPLQSQDEKERHKISNQKARRESMSRARNSLLFTTLGPATAWVLWLDADIVETPPTLIQDLTAHDHPVLVPNCYQRYYNSEKKKMDVRPYDYNSWIDSSTAQSMAAEMGPDEILLEGYAEMPTYRTLMAHLADTANPNPKKVIELDGVGGTALMVKAEVHRDGAMFPAFPFYHLVETEGFAKMAKRLGYSVYGLPDYFVSRNFFFFFFFFFFG
-0.217

These measurements were taken from the supplement of paper PMC8728848.
